assay: 1st phase clinical test: pharmacokinetics of petasin in serum after single oral administration of tablets containing butterbur extract (open crossover; enzyme immunoassay); format: in vivo, human (clinically healthy men); settings: male, human, serum, oral, 2 tablets, after administering 2 tablets; 8 h p.a.; read-out: Petasin serum concentration Min.
endpoint-label: concentration at 8 h (ng/mL)
Dear colleague, please return just the value in ng/mL, with no unit written.

get_value(item= C=C(C)C1CC2(C)C(=CC1=O)CCC(OC(=O)/C(C)=C\C)C2C (stereo not shown) , readout=concentration at 8 h) returns 1

---

Assay: 1st phase clinical test: pharmacokinetics of petasin in serum after single oral administration of tablets containing butterbur extract (open crossover; enzyme immunoassay)
Type: in vivo, human (clinically healthy men)
Conditions: male, human, serum, oral, 2 tablets, after administering 2 tablets; 0.5 h p.a.; read-out: Petasin serum concentration Mean
Experimental: Petasin ovalbumin is adsorptively bound to polystyrene microtitration plates in a concentration of […] in 0.1 M carbonate buffer, pH=9.5, (100 μl/well) for 16 hours at 4° C. and thereupon sucked off. After washing it two times with 300 μl/well washing buffer (PBS, 0.1% Tween 20) it is blocked for 2 hours at room temperature with 150 μl/well blocking solution (0.6% gelatine, 0.02% […] in PBS) and subsequently washed three times with washing buffer. […]
endpoint-label: concentration at 0.5 h (ng/mL)
Dear colleague, please return just the value in ng/mL, with no unit written.

get_value(item= C=C(C)C1CC2(C)C(=CC1=O)CCC(OC(=O)/C(C)=C\C)C2C (stereo not shown) , readout=concentration at 0.5 h) returns 7.6
